Recorded values, source the supplement of paper PMC11061612.

Property: combination Emax; scope: individual compounds
system: NCI-H2122 (Lung Adenocarcinoma); assay: combination Emax (second highest fraction inhibited in the dose matrix, 72 h); higher = more inhibition; extreme values may be limits of the assay
QUANTITY KIND: combination Emax

INSERT INTO results (compound, result_number) VALUES
  ('Cn1cnc2c(F)c(Nc3ccc(Br)cc3Cl)c(C(=O)NOCCO)cc21 [Selumetinib] + C=CCn1c(=O)c2cnc(Nc3ccc(N4CCN(C)CC4)cc3)nc2n1-c1cccc(C(C)(C)O)n1 [AZD1775] (first compound max 10 µM, partner max 1 µM)', 0.985),
  ('CC(=O)c1c(C)c2cnc(Nc3ccc(N4CCNCC4)cn3)nc2n(C2CCCC2)c1=O [Palbociclib] + CN(CC[C@H](CSC1=CC=CC=C1)NC2=C(C=C(C=C2)S(=O)(=O)NC(=O)C3=CC=C(C=C3)N4CCC(CC4)[C@H](C5=CC=CC=C5C6=CC=C(C=C6)Cl)O)S(=O)(=O)C(F)(F)F)CCO [AZD4320] (first compound max 10 µM, 7x7, partner max 1 µM)', 0.684);

----------
system: ME-180 (Cervical Carcinoma); assay: Bliss excess, mean over the matrix (fraction); higher = more synergy
QUANTITY KIND: Bliss excess

INSERT INTO results (compound, quantity_kind, result_number) VALUES
  ('CN(CCO)CC[C@H](CSc1ccccc1)Nc1ccc(S(=O)(=O)NC(=O)c2ccc(N3CCC([C@@H](O)c4ccccc4-c4ccc(Cl)cc4)CC3)cc2)cc1S(=O)(=O)C(F)(F)F [AZD4320] + CC(=O)O[C@H]1C(=O)[C@@]2(C)[C@H]([C@H](OC(=O)c3ccccc3)[C@]3(O)C[C@H](OC(=O)[C@H](O)[C@@H](NC(=O)c4ccccc4)c4ccccc4)C(C)=C1C3(C)C)[C@]1(OC(C)=O)CO[C@@H]1C[C@@H]2O [Paclitaxel] (first compound max 1 µM, 7x7, partner max 3 µM)', 'Bliss excess', 0.139);

----------
tested on: COLO-679 (Melanoma); test: Bliss excess, mean over the matrix (fraction); higher = more synergy
QUANTITY KIND: Bliss excess

INSERT INTO results (compound, result) VALUES
  ('Cc1c2c(nn1C)CSCc1cc(n(C)n1)CSc1cc(c3ccccc3c1)OCCCc1c(C(=O)O)n(C)c3c-2c(Cl)ccc13 [AZD5991] + Nc1ccn([C@@H]2O[C@H](CO)[C@@H](O)C2(F)F)c(=O)n1 [Gemcitabine] (first compound max 1 µM, 7x7, partner max 0.3 µM)', -0.0703),
  ('CN(CCO)CC[C@H](CSc1ccccc1)Nc1ccc(S(=O)(=O)NC(=O)c2ccc(N3CCC([C@@H](O)c4ccccc4-c4ccc(Cl)cc4)CC3)cc2)cc1S(=O)(=O)C(F)(F)F [AZD4320] + C[C@@H](Nc1cc(F)cc(F)c1)c1cc(C(=O)N(C)C)cc2c(=O)cc(N3CCOCC3)oc12 [AZD8186] (first compound max 1 µM, 7x7, partner max 3 µM)', -0.0469),
  ('CCc1c2c(nc3ccc(O)cc13)-c1cc3c(c(=O)n1C2)COC(=O)[C@]3(O)CC [SN-38] + CN(C)CCCOc1ccc(-c2ccc3ncc4c(c3c2)n(C2CCOCC2)c(=O)n4C)cn1 [AZD0156] (first compound max 0.3 µM, 7x7, partner max 1 µM)', -0.0767),
  ('CCc1c2c(nc3ccc(O)cc13)-c1cc3c(c(=O)n1C2)COC(=O)[C@]3(O)CC [SN-38] + O=C(c1cc(Cc2n[nH]c(=O)c3ccccc23)ccc1F)N1CCN(C(=O)C2CC2)CC1 [Olaparib] (first compound max 0.3 µM, 7x7, partner max 10 µM)', 0.005),
  ('CC1(C)CCC(CN2CCN(c3ccc(C(=O)NS(=O)(=O)c4ccc(NCC5CCOCC5)c([N+](=O)[O-])c4)c(Oc4cnc5[nH]ccc5c4)c3)CC2)=C(c2ccc(Cl)cc2)C1 [Venetoclax] + COc1cc(Nc2ncc3c(n2)-c2ccc(Cl)cc2C(c2c(F)cccc2OC)=NC3)ccc1C(=O)O [Alisertib] (first compound max 1 µM, 7x7, partner max 10 µM)', 0.0194),
  ('Cc1c2c(nn1C)CSCc1cc(n(C)n1)CSc1cc(c3ccccc3c1)OCCCc1c(C(=O)O)n(C)c3c-2c(Cl)ccc13 [AZD5991] + CC1(C)CCC(CN2CCN(c3ccc(C(=O)NS(=O)(=O)c4ccc(NCC5CCOCC5)c([N+](=O)[O-])c4)c(Oc4cnc5[nH]ccc5c4)c3)CC2)=C(c2ccc(Cl)cc2)C1 [Venetoclax] (first compound max 1 µM, 7x7, partner max 1 µM)', -0.0218);
